- procedure-text: MDCK permeability
- Type: in vitro ADME, canine
- measurement-parameters: dog, MDCK, pH 7.4; 10 μM, apical to basolateral
reported-property: Papp A→B at 10 μM (×10⁻⁶ cm/s)

- molecule: "CCc1ccc2nc(C(c3ccc(OC)c(OC)c3)n3cc(CCN4CCCCC4)nn3)sc2c1 (stereo not shown)"
  readout-value: 11

----------
- Test system: HUVECs
- procedure-text: In vitro tube formation assay
- Type: cell-based, human
- measurement-parameters: Homo sapiens, HUVEC; HUVECs on Matrigel, 8 hours, VEGF-induced tube formation
pIC50: −log10 of the molar value.

- compound: "CCc1ccc2nc(C(c3ccc(OC)c(OC)c3)n3cc(CCN(C)C)nn3)sc2c1 (centres unmarked)"
  relation-sign: "="
  pIC50: 5.08
- compound: "CCc1ccc2nc(C(c3ccc(OC)c(OC)c3)n3cnc(CCN(C)C)c3)sc2c1 (centres unmarked)"
  relation-sign: "="
  pIC50: 5.31
- compound: "CCc1ccc2nc(C(c3ccc(OC)c(OC)c3)n3cnc(CCN4CCCC4)c3)sc2c1 (centres unmarked)"
  relation-sign: "="
  pIC50: 5.82
- compound: "CCc1ccc2nc(C(c3ccc(OC)c(OC)c3)n3cnc(CCNC4CCCC4)c3)sc2c1 (centres unmarked)"
  relation-sign: "="
  pIC50: 5.81
- compound: "CCc1ccc2nc(C(c3ccc(OC)c(OC)c3)n3cnc(CCN4CCCCC4)c3)sc2c1 (centres unmarked)"
  relation-sign: "="
  pIC50: 5.47
- compound: "CCc1ccc2nc(C(c3ccc(O)c(O)c3)n3cc(CCN(C)C)nn3)oc2c1 (centres unmarked)"
  relation-sign: "<"
  pIC50: 4.70
- compound: "CCc1ccc2nc(C(c3ccc(OC)c(OC)c3)n3cc(CCN4CCCCC4)nn3)sc2c1 (centres unmarked)"
  relation-sign: "="
  pIC50: 6.20
- compound: "CCN(CC)CCNC(=O)c1c(C)[nH]c(/C=C2\\C(=O)Nc3ccc(F)cc32)c1C [Sunitinib, sunitinib, reference compound]"
  relation-sign: "="
  pIC50: 6.26
- compound: "CCCNCCc1cn(C(c2ccc(OC)c(OC)c2)c2nc3ccc(CC)cc3s2)nn1 (centres unmarked)"
  relation-sign: "="
  pIC50: 5.86
- compound: "CCc1ccc2nc(C(c3ccc(OC)c(OC)c3)n3cc(CCN4CCOCC4)nn3)sc2c1 (centres unmarked)"
  relation-sign: "="
  pIC50: 5.41
- compound: "CCc1ccc2nc(C(c3ccc(OC)c(OC)c3)n3cc(CN4CCCCC4)nn3)sc2c1 (centres unmarked)"
  relation-sign: "="
  pIC50: 5.61
- compound: "CCc1ccc2nc(C(c3ccc(OC)c(OC)c3)n3cc(CCCN4CCCCC4)nn3)sc2c1 (centres unmarked)"
  relation-sign: "="
  pIC50: 5.64
- compound: "CCc1ccc2nc(C(c3ccc(OC)c(OC)c3)n3cc(CCNC4CCCC4)nn3)sc2c1 (centres unmarked)"
  relation-sign: "="
  pIC50: 5.99
- compound: "CCc1ccc2nc(C(c3ccc(OC)c(OC)c3)n3cc(CCN4CCCC4)nn3)sc2c1 (centres unmarked)"
  relation-sign: "="
  pIC50: 5.55
- compound: "CCc1ccc2nc(C(c3ccc(O)c(O)c3)n3cc(CCN(C)C)nn3)sc2c1 (centres unmarked)"
  relation-sign: "="
  pIC50: 5.52
- compound: "CCCN(CCC)CCc1cn(C(c2ccc(OC)c(OC)c2)c2nc3ccc(CC)cc3s2)cn1 (centres unmarked)"
  relation-sign: "="
  pIC50: 5.74
- compound: "CCc1ccc2cc(C(c3ccc(O)c(O)c3)n3cc(CCN(C)C)nn3)oc2c1 (centres unmarked)"
  relation-sign: "="
  pIC50: 5.21

Cited source: patent US11168081B2
